The reported numbers originate from patent US10301272B2.

Molecular target: RORγ (Homo sapiens)
Sequence (P51449 whole entry, looked up, the tested form may be a part): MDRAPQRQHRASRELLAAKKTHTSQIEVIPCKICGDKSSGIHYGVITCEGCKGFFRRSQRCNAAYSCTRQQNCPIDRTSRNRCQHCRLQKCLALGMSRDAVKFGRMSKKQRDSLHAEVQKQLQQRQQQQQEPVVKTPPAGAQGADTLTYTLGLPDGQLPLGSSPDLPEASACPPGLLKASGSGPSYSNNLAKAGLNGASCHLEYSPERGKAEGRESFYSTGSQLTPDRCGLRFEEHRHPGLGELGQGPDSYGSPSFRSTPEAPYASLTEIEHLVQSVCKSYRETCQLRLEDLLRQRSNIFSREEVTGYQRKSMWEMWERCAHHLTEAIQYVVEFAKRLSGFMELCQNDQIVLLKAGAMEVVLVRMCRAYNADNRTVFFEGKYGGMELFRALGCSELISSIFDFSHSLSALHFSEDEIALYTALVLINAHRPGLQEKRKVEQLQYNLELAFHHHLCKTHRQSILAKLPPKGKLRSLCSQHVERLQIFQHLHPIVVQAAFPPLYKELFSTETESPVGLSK
Test: RORγ Gal4 Reporter Gene Assay
Format: cell-based
Settings: firefly (FF) luciferase, 293T cells
Experimental: Determination of a ligand mediated Gal4 promoter driven transactivation to quantify ligand binding to RORγ was performed as follows: DNA encoding three different RORγ protein fragments was cloned into vector pCMV-BD (Stratagene). Expression was under control of a CMV promoter and as fusion to the DNA-binding domain of the yeast protein GAL4. […]
measured_quantity: pIC50 (FF)
Could you respond with only the numeric value?

response.value for CC(C)(C)c1cc(-c2sc(C(=O)NC3CC(C(=O)O)C3)nc2CC2CCCCC2)nc(C(C)(C)C)n1 (stereo not shown) (field: pIC50 (FF)) = 6.9

pIC50 (FF) recorded for this molecule, CC(C)(C)c1cc(-c2sc(C(=O)NC3CC(C(=O)O)C3)nc2CC2CCCCC2)nc(C2(C)CC2)n1 (stereo not shown) , is 6.8

Lookup result for `CC(C)(C)NS(=O)(=O)c1ccc(-c2sc(C(=O)N[C@H]3C[C@H](C(=O)O)C3)nc2CC2CCCCC2)c2ccccc12` ; measured pIC50 (FF): 8.7

Recorded result, `CC(C)(C)NS(=O)(=O)c1ccc(-c2sc(C(=O)NC3CCC3)[n+]([O-])c2CC2CCCCC2)c2ccccc12` , pIC50 (FF): 7.5
